Quick reference: kinase still bound, per cent of control of the listed items.
# Measured Target: UniProt Q9Y6R4
# Sequence (Q9Y6R4 whole entry, looked up): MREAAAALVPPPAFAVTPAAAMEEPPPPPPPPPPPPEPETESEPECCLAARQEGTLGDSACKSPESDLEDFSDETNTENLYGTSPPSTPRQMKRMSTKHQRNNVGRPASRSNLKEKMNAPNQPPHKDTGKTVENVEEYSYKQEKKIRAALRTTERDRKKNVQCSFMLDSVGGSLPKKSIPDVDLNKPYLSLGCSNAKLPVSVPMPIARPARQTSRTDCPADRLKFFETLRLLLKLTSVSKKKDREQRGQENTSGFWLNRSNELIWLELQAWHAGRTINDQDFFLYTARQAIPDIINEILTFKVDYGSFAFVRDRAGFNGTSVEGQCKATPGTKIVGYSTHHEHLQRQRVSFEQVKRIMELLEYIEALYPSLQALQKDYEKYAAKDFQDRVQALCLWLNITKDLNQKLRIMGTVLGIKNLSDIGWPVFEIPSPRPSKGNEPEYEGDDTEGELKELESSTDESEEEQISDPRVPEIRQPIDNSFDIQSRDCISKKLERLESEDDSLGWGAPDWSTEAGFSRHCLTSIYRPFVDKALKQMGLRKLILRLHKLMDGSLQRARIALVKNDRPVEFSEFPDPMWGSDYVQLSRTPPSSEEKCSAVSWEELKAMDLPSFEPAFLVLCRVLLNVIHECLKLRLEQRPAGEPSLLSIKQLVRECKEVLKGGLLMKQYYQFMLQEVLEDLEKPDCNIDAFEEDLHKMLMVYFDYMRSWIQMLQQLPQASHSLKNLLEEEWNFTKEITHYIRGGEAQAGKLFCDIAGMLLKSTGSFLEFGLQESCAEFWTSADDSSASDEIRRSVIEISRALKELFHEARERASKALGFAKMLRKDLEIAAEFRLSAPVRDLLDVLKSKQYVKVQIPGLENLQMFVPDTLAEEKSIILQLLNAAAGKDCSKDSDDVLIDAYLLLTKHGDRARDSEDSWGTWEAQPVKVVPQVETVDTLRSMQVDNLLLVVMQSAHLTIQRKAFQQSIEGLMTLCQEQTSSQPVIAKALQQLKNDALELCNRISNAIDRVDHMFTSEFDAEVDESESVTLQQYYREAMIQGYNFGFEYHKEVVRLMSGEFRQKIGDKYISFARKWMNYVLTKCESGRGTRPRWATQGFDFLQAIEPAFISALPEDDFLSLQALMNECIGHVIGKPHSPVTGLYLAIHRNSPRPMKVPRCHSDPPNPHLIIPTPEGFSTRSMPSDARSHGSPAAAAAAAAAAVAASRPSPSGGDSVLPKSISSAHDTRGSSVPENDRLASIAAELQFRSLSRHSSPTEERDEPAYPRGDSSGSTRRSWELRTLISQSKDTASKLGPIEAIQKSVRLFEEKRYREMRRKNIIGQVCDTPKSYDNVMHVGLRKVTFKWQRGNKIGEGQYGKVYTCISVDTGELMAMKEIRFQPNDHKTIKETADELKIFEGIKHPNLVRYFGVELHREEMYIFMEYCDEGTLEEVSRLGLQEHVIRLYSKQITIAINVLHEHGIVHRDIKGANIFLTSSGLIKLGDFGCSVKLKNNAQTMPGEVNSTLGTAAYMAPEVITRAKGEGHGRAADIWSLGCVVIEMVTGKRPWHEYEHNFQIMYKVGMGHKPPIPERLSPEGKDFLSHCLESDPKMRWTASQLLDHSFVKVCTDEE
# Procedure Text: KINOMEscan competition binding
# Condition Info: compound 10.0 µM
Give the value, in units of %, as a plain number.

These recorded examples may help you get a feel for the data.
Cn1c(=O)n(-c2ccc(C(C)(C)C#N)cc2)c2c3cc(-c4cnc5ccccc5c4)ccc3ncc21 :: 100
C=CC(=O)Nc1cc(NC(=O)c2ccc(C)c(NC(=O)c3ccno3)c2)cc(C(F)(F)F)c1 :: 100
Nc1ccc(-c2ccc3ncc4ccc(=O)n(-c5cccc(C(F)(F)F)c5)c4c3c2)cn1 :: 100
N#Cc1c(NC(=O)c2cccc3ccccc23)sc2c1CCCC2 :: 86
C=CC(=O)Nc1cccc(Oc2nc(Nc3ccc(N4CCN(C)CC4)cc3OC)ncc2Cl)c1 :: 100

Q. State its kinase still bound, per cent of control: O=C(NC1CC1)c1cccc(-c2ccc3c(NC(=O)C4CC4)n[nH]c3c2)c1
A. 93

Q. State its kinase still bound, per cent of control: Cc1ccc2nc(NCCN)c3ncc(C)n3c2c1
A. 100

---

# Measured Target: MYLK2 (human)
# Procedure Text: KINOMEscan competition binding
# Condition Info: compound 10.0 µM
Metric: kinase still bound, per cent of control (%)
Give the value, in units of %, as a plain number.

These recorded examples may help you get a feel for the data.
C=CC(=O)Nc1cccc(Nc2nc(N[C@H]3CC[C@H](N(C)C)CC3)nc3c2ncn3C(C)C)c1 :: 90
COc1cc(C(=O)NC2CCN(C)CC2)ccc1Nc1ncc2c(n1)N(C1CCCC1)CCC(=O)N2C(C)C :: 100
C[C@@H](Oc1cc(-n2cnc3ccc(CN4CCN(C)CC4)cc32)sc1C(N)=O)c1ccccc1C(F)(F)F :: 61
CC[C@@H]1C(=O)N(C)c2cnc(Nc3ccc(C(=O)NC4CCN(C)CC4)cc3OC)nc2N1C1CCCC1 :: 100
Cc1cc([C@@H](C)Nc2ccccc2C(=O)O)c2nc(N3CCOCC3)cc(=O)n2c1 :: 100

Pending compound:
Q. State its kinase still bound, per cent of control: N#Cc1c(NC(=O)c2cccc3ccccc23)sc2c1CCCC2
A. 100

---

# Test system: ABL1 (human), P00519 [M351T]
# Procedure Text: KINOMEscan competition binding
# Condition Info: compound 10.0 µM
// assign Met if kinase still bound, per cent of control falls strictly below 90%, else Not met (ties count as Not met)

A selection of reference data follows.
C=CC(=O)Nc1cc(NC(=O)c2ccc(C)c(NC(=O)c3ccno3)c2)cc(C(F)(F)F)c1 :: Met
Nc1ccc(-c2ccc3ncc4ccc(=O)n(-c5cccc(C(F)(F)F)c5)c4c3c2)cn1 :: Not met
CCN1CCN(Cc2ccc(Nc3ncc4c(n3)N(C)c3ccccc3C(=O)N4C)cc2C(F)(F)F)CC1 :: Met
CCOc1cc2ncc(C#N)c(Nc3ccc(OCc4ccccn4)c(Cl)c3)c2cc1NC(=O)/C=C/CN(C)C :: Not met
COc1cc2ncnc(Nc3cccc(Cl)c3)c2cc1OC :: Met
CN(C)C/C=C/C(=O)Nc1cccc(Nc2ncc3c(n2)N(C)c2ccccc2C(=O)N3C)c1 :: Met
N#Cc1c(NC(=O)c2cccc3ccccc23)sc2c1CCCC2 :: Not met
CN(C)C/C=C/C(=O)Nc1ccc(C(=O)Nc2cccc(Nc3nccc(-c4cccnc4)n3)c2)cc1 :: Met

Q. I wonder whether COc1cc(N2CCC(C(N)=O)CC2)ccc1Nc1nc(N)c(Cl)c(Nc2ccccc2S(=O)(=O)C(C)C)n1 has kinase still bound, per cent of control below 90%. Can you tell?
A. Not met

Q. I wonder whether COc1ccc(N(C(=O)Oc2c(C)cccc2C)c2ccnc(Nc3ccc(N4CCN(C)CC4)cc3)n2)c(OC)c1 has kinase still bound, per cent of control below 90%. Can you tell?
A. Met

---

# Measured Target: RPS6KA6 KD1 (human)
# Procedure Text: KINOMEscan competition binding
# Condition Info: compound 10.0 µM
Quick reference: kinase still bound, per cent of control of the listed items.
Give the value, in units of %, as a plain number.

O=C1Nc2ccc(I)cc2/C1=C/c1cc(Br)c(O)c(Br)c1 :: 51
CCOc1cc2ncc(C#N)c(Nc3ccc(OCc4ccccn4)c(Cl)c3)c2cc1NC(=O)/C=C/CN(C)C :: 86
C[C@@H](Oc1cc(-n2cnc3ccc(CN4CCN(C)CC4)cc32)sc1C(N)=O)c1ccccc1C(F)(F)F :: 0.6
CCN1CCN(Cc2ccc(Nc3ncc4c(n3)N(C)c3ccccc3C(=O)N4C)cc2C(F)(F)F)CC1 :: 19

Pending molecule:
Q. State its kinase still bound, per cent of control: Cc1ccc(NC(=O)c2cccc(C(C)(C)C#N)c2)cc1Nc1ccc2ncn(C)c(=O)c2c1
A. 87

---

# Measured Target: CRK2 (P.falciparum) (UniProt P61075)
# Sequence (P61075 whole entry, looked up): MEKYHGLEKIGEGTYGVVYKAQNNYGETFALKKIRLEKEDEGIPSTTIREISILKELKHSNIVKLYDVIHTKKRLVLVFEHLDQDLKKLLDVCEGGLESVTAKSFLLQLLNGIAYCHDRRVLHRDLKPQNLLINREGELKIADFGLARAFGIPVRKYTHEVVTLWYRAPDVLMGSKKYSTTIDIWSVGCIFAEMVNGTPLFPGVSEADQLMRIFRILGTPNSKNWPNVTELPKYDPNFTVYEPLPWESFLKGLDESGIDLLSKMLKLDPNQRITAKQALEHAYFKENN
# Procedure Text: KINOMEscan competition binding
# Condition Info: compound 10.0 µM
Quick reference: kinase still bound, per cent of control of the listed items.
Give the value, in units of %, as a plain number.

These recorded examples may help you get a feel for the data.
C[C@@H](Oc1cc(-n2cnc3ccc(CN4CCN(C)CC4)cc32)sc1C(N)=O)c1ccccc1C(F)(F)F :: 100
Cc1ccc2nc(NCCN)c3ncc(C)n3c2c1 :: 100

Q. Would you please give the reported kinase still bound, per cent of control of O=C(NC1CC1)c1cccc(-c2ccc3c(NC(=O)C4CC4)n[nH]c3c2)c1 with CRK2 (P.falciparum) (UniProt P61075)?
A. 100

Q. Would you please give the reported kinase still bound, per cent of control of Cc1ccc(NC(=O)c2cccc(C(C)(C)C#N)c2)cc1Nc1ccc2ncn(C)c(=O)c2c1 with CRK2 (P.falciparum) (UniProt P61075)?
A. 94

Q. Would you please give the reported kinase still bound, per cent of control of Nc1ccc(-c2ccc3ncc4ccc(=O)n(-c5cccc(C(F)(F)F)c5)c4c3c2)cn1 with CRK2 (P.falciparum) (UniProt P61075)?
A. 100

Q. Would you please give the reported kinase still bound, per cent of control of O=C1Nc2ccc(I)cc2/C1=C/c1cc(Br)c(O)c(Br)c1 with CRK2 (P.falciparum) (UniProt P61075)?
A. 90

Q. Would you please give the reported kinase still bound, per cent of control of C=CC(=O)Nc1cccc(Nc2nc(N[C@H]3CC[C@H](N(C)C)CC3)nc3c2ncn3C(C)C)c1 with CRK2 (P.falciparum) (UniProt P61075)?
A. 100

Q. Would you please give the reported kinase still bound, per cent of control of O=C(O)c1ccc(Nc2ncc3c(n2)-c2ccc(Cl)cc2C(c2c(F)cccc2F)=NC3)cc1 with CRK2 (P.falciparum) (UniProt P61075)?
A. 100

Q. Would you please give the reported kinase still bound, per cent of control of N#Cc1c(NC(=O)c2cccc3ccccc23)sc2c1CCCC2 with CRK2 (P.falciparum) (UniProt P61075)?
A. 100

Q. Would you please give the reported kinase still bound, per cent of control of COc1cc(N2CCN(C)CC2)ccc1Nc1nc(N)c(C(=O)c2c(Cl)cccc2Cl)s1 with CRK2 (P.falciparum) (UniProt P61075)?
A. 87

Q. Would you please give the reported kinase still bound, per cent of control of CCN1CCN(Cc2ccc(Nc3ncc4c(n3)N(C)c3ccccc3C(=O)N4C)cc2C(F)(F)F)CC1 with CRK2 (P.falciparum) (UniProt P61075)?
A. 100

Q. Would you please give the reported kinase still bound, per cent of control of CCOc1cc2ncc(C#N)c(Nc3ccc(OCc4ccccn4)c(Cl)c3)c2cc1NC(=O)/C=C/CN(C)C with CRK2 (P.falciparum) (UniProt P61075)?
A. 100

Q. Would you please give the reported kinase still bound, per cent of control of CN(C)C/C=C/C(=O)Nc1cccc(Nc2ncc3c(n2)N(C)c2ccccc2C(=O)N3C)c1 with CRK2 (P.falciparum) (UniProt P61075)?
A. 100

Q. Would you please give the reported kinase still bound, per cent of control of O=C(NOC[C@H](O)CO)c1ccc(F)c(F)c1Nc1ccc(I)cc1F with CRK2 (P.falciparum) (UniProt P61075)?
A. 100

Q. Would you please give the reported kinase still bound, per cent of control of CCC(=O)N1CCN(c2ccc(-n3c(=O)ccc4cnc5ccc(-c6cnc7ccccc7c6)cc5c43)cc2C(F)(F)F)CC1 with CRK2 (P.falciparum) (UniProt P61075)?
A. 97

Q. Would you please give the reported kinase still bound, per cent of control of C=CC(=O)Nc1cc(NC(=O)c2ccc(C)c(NC(=O)c3ccno3)c2)cc(C(F)(F)F)c1 with CRK2 (P.falciparum) (UniProt P61075)?
A. 98

Q. Would you please give the reported kinase still bound, per cent of control of Cc1cc([C@@H](C)Nc2ccccc2C(=O)O)c2nc(N3CCOCC3)cc(=O)n2c1 with CRK2 (P.falciparum) (UniProt P61075)?
A. 98

Q. Would you please give the reported kinase still bound, per cent of control of CCCS(=O)(=O)Nc1ccc(F)c(C(=O)c2c[nH]c3ncc(-c4ccc(Cl)cc4)cc23)c1F with CRK2 (P.falciparum) (UniProt P61075)?
A. 97
